The measured values listed here are drawn from patent US20230250191A1.

The entries below come with measured koff values attached.
target: T1, cynomolgus monkey IgE CH3-CH4 (cynomolgus monkey); test: BLI (Octet), method of Example 2, biotinylated cynomolgus IgE CH3-CH4
T1 construct: domain: CH3-CH4; Custom protein; also called Biotin -cyno IgE CH3-CH4; Biotin-cyno IgE
Kindly answer with a numeric value in s⁻¹, unit omitted.

Before answering, review these 3 worked examples.
binder="AB1904Am2 (antibody, V domains shown, IgG1 format) VH: EVQLVESGGGLVQPGGSLRLSCAVSGYSIRSGYSWNWVRQAPGKGLEWVSVITYAGSTNYADSVKGRFTISRDDSKNTFYLQMNSLRAEDTAVYYCARGSHYFGHWHFAVWGQGTLVTVSS VL: DIQLTQSPSSLSASVGDRVTITCRASQSVADEWDSYMNWYQQKPGKAPKLLIYAASYLQSGVPSRFSGSGSGTDFTLTISSLQPEDFATYYCQQSHEDPYTFGQGTKLEIK" data_value=0.000222
binder="AB1904Am3 (antibody, V domains shown, IgG1 format) VH: EVQLVESGGGLVQPGGSLRLSCAVSGYSITSGYSWNWVRQAPGKGLEWVSVITYAGSTNYADSVKGRFTISRDDSKNTFYLQMNSLRAEDTAVYYCARGTHYFGHWHFAVWGQGTLVTVSS VL: DIQLTQSPSSLSASVGDRVTITCRASQSVDAEGDSYMNWYQQKPGKAPKLLIYAASYLQSGVPSRFSGSGSGTDFTLTISSLQPEDFATYYCQQSHEDPYTFGQGTKLEIK" data_value=0.000272
binder="AB1904Am6 (antibody, V domains shown, IgG1 format) VH: EVQLVESGGGLVQPGGSLRLSCAVSGYSITSGYSWNWVRQAPGKGLEWVSVITYAGSTNYADSVKGRFTISRDDSKNTFYLQMNSLRAEDTAVYYCARGSNYFGHWHFAVWGQGTLVTVSS VL: DIQLTQSPSSLSASVGDRVTITCRASQSVDSEGDSYMNWYQQKPGKAPKLLIYAASYLQSGVPSRFSGSGSGTDFTLTISSLQPEDFATYYCQQSHEDPYTFGQGTKLEIK" data_value=0.000308

Give its koff value. Item: AB1904Am5 (antibody, V domains shown, IgG1 format) VH: EVQLVESGGGLVQPGGSLRLSCAVSGYSITSGYSWNWVRQAPGKGLEWVSVITYAGSTNYADSVKGRFTISRDDSKNTFYLQMNSLRAEDTAVYYCARGSHYFGHWHFAVWGQGTLVTVSS VL: DIQLTQSPSSLSASVGDRVTITCRASQSVDDEYDSYMNWYQQKPGKAPKLLIYAASYLQSGVPSRFSGSGSGTDFTLTISSLQPEDFATYYCQQSHEDPYTFGQGTKLEIK
0.000267
